- System: MDA-MB-231
- test-details: Cytotoxicity against human MDA-MB-231 cells assessed as reduction in cell viability incubated for 48 hrs by MTS assay
- Assay type: functional, cell-based
- conditions-used: MDA-MB-231, 48 h
Field: log10 IC50. Provide a value for each of the compounds that follow.
Scale: decimal log of IC50, IC50 in µM.

Input: Form field: log10 IC50 recorded for `CC(C)=CC[C@@]12OC(C)(C)[C@@H]3C[C@H](C=C4C(=O)c5c(O)cc6c(c5O[C@]431)CCC(C)(C)O6)C2=O` with MDA-MB-231 (enter value)
Output: 0.36

Input: Would you kindly repeat that for `CC(C)=CCc1c(O)cc(O)c2c1O[C@]13C(=C[C@H]4C[C@H]1C(C)(C)O[C@@]3(CC=C(C)C)C4=O)C2=O` ?
Output: 0.11

Input: Continue with `CC(C)(O)CCc1c(O)cc(O)c2c(=O)c3ccc(O)c(O)c3oc12`
Output: 1.44

Input: Also `CC1(C)C=Cc2c(cc(O)c3c(=O)c4ccc(O)c(O)c4oc23)O1` ?
Output: 0.95

Input: Field entry: `CC(C)=CC[C@@]12OC(C)(C)[C@@H]3C[C@H](C=C4C(=O)c5c(O)cc(O)cc5O[C@]431)C2=O`
Output: 0.76

Input: // same read-out, input: `CC(C)=CC[C@@]12OC(C)(C)[C@@H]3C[C@H](C=C4C(=O)c5c(O)cc(O)c(CCC(C)(C)O)c5O[C@]431)C2=O`
Output: 0.79
